Value source: patent US20220125051A1

Recorded pest or weed control at 500 g/ha for the following compounds
Tested on: Digitaria sanguinalis (DIGSA)
Protocol Notes: Post-emergence efficacy, Method A
Assay type: in vivo
Experimental Parameters: Digitaria sanguinalis, post-emergence, 312 h; Application rate 500 g/Ha; evaluated after 13 days; 100=total damage to plant, 0=no damage to plant; read-out: Control of weed species after post-emergence application, DIGSA

Compound: O=C(O)CC[n+]1ccc(-c2ncccc2C(F)(F)F)cn1 [Compound A128]
Assay Target: Digitaria sanguinalis (DIGSA)
Readout Unit: %
pest or weed control at 500 g/ha: 30
--
Compound: O=S(=O)(O)CCC[n+]1ccc(-c2cnccn2)cn1 [Compound A10]
Assay Target: Digitaria sanguinalis (DIGSA)
Readout Unit: %
pest or weed control at 500 g/ha: 60
--
Compound: CNC(=O)c1cnc(-c2cc[n+](CCC(=O)[O-])nc2)nc1 [Compound A93]
Assay Target: Digitaria sanguinalis (DIGSA)
Readout Unit: %
pest or weed control at 500 g/ha: 100
--
Compound: COc1cc(OC)nc(-c2cc[n+](CCC(=O)[O-])nc2)n1 [Compound A76]
Assay Target: Digitaria sanguinalis (DIGSA)
Readout Unit: %
pest or weed control at 500 g/ha: 20
--
Compound: O=C([O-])CC[n+]1ccc(-c2ncc(C3CC3)cn2)cn1 [Compound A51]
Assay Target: Digitaria sanguinalis (DIGSA)
Readout Unit: %
pest or weed control at 500 g/ha: 90
--
Compound: Cc1cccc(-c2cc[n+](CCS(=O)(=O)[O-])nc2)n1 [Compound A75]
Assay Target: Digitaria sanguinalis (DIGSA)
Readout Unit: %
pest or weed control at 500 g/ha: 50
--
Compound: O=C([O-])CC[n+]1ccc(-c2ncc(Cl)cn2)cn1 [Compound A43]
Assay Target: Digitaria sanguinalis (DIGSA)
Readout Unit: %
pest or weed control at 500 g/ha: 90
--
Compound: Cc1cnc(-c2cc[n+](CCS(=O)(=O)[O-])nc2)cn1 [Compound A61]
Assay Target: Digitaria sanguinalis (DIGSA)
Readout Unit: %
pest or weed control at 500 g/ha: 100
--
Compound: CN(C)c1cnc(-c2cc[n+](CCC(=O)[O-])nc2)nc1 [Compound A42]
Assay Target: Digitaria sanguinalis (DIGSA)
Readout Unit: %
pest or weed control at 500 g/ha: 50
--
Compound: Cc1cc(F)cnc1-c1cc[n+](CCS(=O)(=O)[O-])nc1 [Compound A104]
Assay Target: Digitaria sanguinalis (DIGSA)
Readout Unit: %
pest or weed control at 500 g/ha: 30
--
Compound: CCOP(=O)(CC[n+]1ccc(-c2ncccn2)cn1)OCC [Compound A124]
Assay Target: Digitaria sanguinalis (DIGSA)
Readout Unit: %
pest or weed control at 500 g/ha: 10
--
Compound: O=C(O)CC[n+]1ccc(-c2ccnc(O)n2)cn1 [Compound A86]
Assay Target: Digitaria sanguinalis (DIGSA)
Readout Unit: %
pest or weed control at 500 g/ha: 30
--
Compound: Cc1cnc(-c2cc[n+](CCS(=O)(=O)[O-])nc2)nc1C [Compound A97]
Assay Target: Digitaria sanguinalis (DIGSA)
Readout Unit: %
pest or weed control at 500 g/ha: 90
--
Compound: O=S(=O)([O-])CC[n+]1ccc(-c2ccc(F)cn2)cn1 [Compound A72]
Assay Target: Digitaria sanguinalis (DIGSA)
Readout Unit: %
pest or weed control at 500 g/ha: 30
--
Compound: Cc1n[n+](CCC(=O)O)ccc1-c1ncccn1.O=C([O-])C(F)(F)F [Compound A132]
Assay Target: Digitaria sanguinalis (DIGSA)
Readout Unit: %
pest or weed control at 500 g/ha: 90
--
Compound: COc1cnc(-c2cc[n+](CCC(=O)[O-])nc2)nc1 [Compound A38]
Assay Target: Digitaria sanguinalis (DIGSA)
Readout Unit: %
pest or weed control at 500 g/ha: 100
--
Compound: CCOP(=O)(CC[n+]1ccc(-c2cnccn2)cn1)OCC [Compound A8]
Assay Target: Digitaria sanguinalis (DIGSA)
Readout Unit: %
pest or weed control at 500 g/ha: 20
--
Compound: COc1cncc(-c2cc[n+](CCCS(=O)(=O)[O-])nc2)n1 [Compound A90]
Assay Target: Digitaria sanguinalis (DIGSA)
Readout Unit: %
pest or weed control at 500 g/ha: 30
--
Compound: O=S(=O)([O-])CCC[n+]1ccc(-c2cnc(Cl)cn2)cn1 [Compound A79]
Assay Target: Digitaria sanguinalis (DIGSA)
Readout Unit: %
pest or weed control at 500 g/ha: 20

###

Test system: Ipomoea hederacea (IPOHE)
Protocol Notes: Post-emergence efficacy, Method A
Format: in vivo
Experimental Parameters: Ipomoea hederacea, post-emergence, 312 h, Application rate 500 g/Ha; evaluated after 13 days; 100=total damage to plant, 0=no damage to plant; read-out: Control of weed species after post-emergence application, IPOHE
Label satisfied when pest or weed control at 500 g/ha < 40%; otherwise not satisfied.

Smiles Structure: O=S(=O)([O-])CC[n+]1ccc(-c2ccc(C(F)(F)F)nn2)cn1
Assay Target: Ipomoea hederacea (IPOHE)
Assigned Class: not satisfied
//
Smiles Structure: O=C([O-])CC[n+]1ccc(-c2ncc(Cl)cn2)cn1
Assay Target: Ipomoea hederacea (IPOHE)
Assigned Class: satisfied
//
Smiles Structure: O=C(O)CC[n+]1ccc(-c2cnc(C(F)(F)F)cn2)cn1
Assay Target: Ipomoea hederacea (IPOHE)
Assigned Class: satisfied
//
Smiles Structure: O=C(O)CC[n+]1ccc(-c2ncccc2Cl)cn1
Assay Target: Ipomoea hederacea (IPOHE)
Assigned Class: satisfied
//
Smiles Structure: COc1ccnc(-c2cc[n+](CCS(=O)(=O)[O-])nc2)n1
Assay Target: Ipomoea hederacea (IPOHE)
Assigned Class: not satisfied

###

Tested on: Ipomoea hederacea (IPOHE)
Protocol Notes: Post-emergence efficacy, Method A
Format: in vivo
Experimental Parameters: Ipomoea hederacea, post-emergence, 312 h, Application rate 500 g/Ha; evaluated after 13 days; 100=total damage to plant, 0=no damage to plant; read-out: Control of weed species after post-emergence application, IPOHE
Measured Endpoint: pest or weed control at 500 g/ha (%)

Smiles Structure: COC(=O)C[n+]1ccc(-c2ncccn2)cn1
Readout Unit: %
Measured Number: 10
//
Smiles Structure: O=C([O-])CC[n+]1ccc(-c2cccc(C(F)(F)F)n2)cn1
Readout Unit: %
Measured Number: 30
//
Smiles Structure: O=C(O)CC[n+]1ccc(-c2ncccc2C(F)(F)F)cn1
Readout Unit: %
Measured Number: 0
//
Smiles Structure: O=S(=O)([O-])CCC[n+]1ccc(-c2cnc(F)cn2)cn1
Readout Unit: %
Measured Number: 30
//
Smiles Structure: O=c1cc(-c2cc[n+](CCCS(=O)(=O)[O-])nc2)nc[nH]1
Readout Unit: %
Measured Number: 10
//
Smiles Structure: CC(=O)c1cnc(-c2cc[n+](CCC(=O)[O-])nc2)nc1
Readout Unit: %
Measured Number: 10
//
Smiles Structure: CCOP(=O)(O)CC[n+]1ccc(-c2ncccn2)cn1
Readout Unit: %
Measured Number: 60
//
Smiles Structure: Cc1n[n+](CCC(=O)O)ccc1-c1ncccn1.O=C([O-])C(F)(F)F
Readout Unit: %
Measured Number: 10
//
Smiles Structure: COC(=O)CC[n+]1ccc(-c2cccnn2)cn1
Readout Unit: %
Measured Number: 10

###

System: Lolium perenne (LOLPE)
Protocol Notes: Post-emergence efficacy, Method A
Format: in vivo
Experimental Parameters: Lolium perenne, post-emergence, 312 h, Application rate 500 g/Ha; evaluated after 13 days; 100=total damage to plant, 0=no damage to plant; read-out: Control of weed species after post-emergence application, LOLPE
// values below are reported pest or weed control at 500 g/ha

Smiles Structure: Cc1ccnc(-c2cc[n+](CCS(=O)(=O)[O-])nc2)n1
pest or weed control at 500 g/ha, %: 80
--
Smiles Structure: Cc1n[n+](CCS(=O)(=O)[O-])ccc1-c1ncccn1
pest or weed control at 500 g/ha, %: 60
--
Smiles Structure: O=S(=O)(O)CCC[n+]1ccc(-c2cnccn2)cn1
pest or weed control at 500 g/ha, %: 90
--
Smiles Structure: CS(=O)(=O)NC(=O)CC[n+]1ccc(-c2ncccn2)cn1
pest or weed control at 500 g/ha, %: 40
--
Smiles Structure: O=S(=O)([O-])CC[n+]1ccc(-c2nccc(C3CC3)n2)cn1
pest or weed control at 500 g/ha, %: 60
--
Smiles Structure: CN(C)C(=O)c1cnc(-c2cc[n+](CCC(=O)[O-])nc2)nc1
pest or weed control at 500 g/ha, %: 50
--
Smiles Structure: O=S(=O)([O-])CC[n+]1ccc(-c2cncc(C(F)(F)F)n2)cn1
pest or weed control at 500 g/ha, %: 50
--
Smiles Structure: O=C(O)CC[n+]1ccc(-c2ncccc2C(F)(F)F)cn1
pest or weed control at 500 g/ha, %: 40
--
Smiles Structure: Cc1cnc(-c2cc[n+](CCS(=O)(=O)[O-])nc2)nc1C
pest or weed control at 500 g/ha, %: 70
